Ref: the supplement of paper PMC10567573

B1: CD69 (parent)
chain: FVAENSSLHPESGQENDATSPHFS

Variants of: B1
TEST PROTOCOL: protein stability index of a GFP-peptide fusion (GPS, HEK-293T) (PSI 1-6); higher = more stable;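 further: lentivirally expressed fusions sorted by FACS into six bins by GFP to DsRed ratio, PSI derived from sequencing read proportions per bin multiplied by bin number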
EXPERIMENTAL SETUP: c terminus: a fixed tail appended
PROPERTY NAME: protein stability index

Illustrative cases are given below, each with its answer.
FVAENSSLHPESGQENDATSPHFV [S24V]
2.77
FVAENSSLHPESGQENDATSPHFK [S24K]
2.91
FVAENLSLHPESGQENDATSPHFS [S6L]
1.5

Q. Supply protein stability index value. Item: FVAENSSLHPESGQENDATMPHFS [S20M]
A. 2.78

Q. Supply protein stability index value. Item: FVAENSSLHMESGQENDATSPHFS [P10M]
A. 2.46

Q. Supply protein stability index value. Item: FVAENSSLHPESGQENDAFSPHFS [T19F]
A. 1.97

Q. Supply protein stability index value. Item: FVAENNSLHPESGQENDATSPHFS [S6N]
A. 2.69

Q. Supply protein stability index value. Item: FVIENSSLHPESGQENDATSPHFS [A3I]
A. 2.86

Q. Supply protein stability index value. Item: FVAENSSLHPEHGQENDATSPHFS [S12H]
A. 2.64

Q. Supply protein stability index value. Item: FVAENSSLHPESGQENDATLPHFS [S20L]
A. 3.02

Q. Supply protein stability index value. Item: FVAENSSLHPESGQENDATWPHFS [S20W]
A. 2.09

Q. Supply protein stability index value. Item: FVAYNSSLHPESGQENDATSPHFS [E4Y]
A. 2.39
